tested on: AXL; details: Compound Concentration (nM):1000;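 further: KINOMEscan scanMAX binding as percent activity remaining versus control; lower means stronger binding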
valueKind: Percent Control (%)
Give the quantity in %, number only.

INPUT: For CN(C)c1cc2c(Nc3ccc4c(cnn4Cc4ccccc4)c3)ncnc2cn1 [GW282974X] , what is its reported Percent Control?
OUTPUT: 98

INPUT: For COc1cccc(-n2ncc3c(N/N=C/c4ccncc4)ncnc32)c1 [GW784752X] , what is its reported Percent Control?
OUTPUT: 100

INPUT: For COc1ccc2[nH]c3c4[nH]c5ccc(OC)cc5c4c4c(c3c2c1)C(=O)NC4=O [GW296115X] , what is its reported Percent Control?
OUTPUT: 30

INPUT: For NS(=O)(=O)c1ccc(Nc2ncc(-c3ccccc3)o2)cc1 [GW572399X] , what is its reported Percent Control?
OUTPUT: 100

INPUT: For `NS(=O)(=O)c1ccc(N/N=C2\C(=O)Nc3ccc(-c4cnco4)cc32)cc1` , what is its reported Percent Control?
OUTPUT: 100

INPUT: For O=C1Nc2ccc(C(=O)c3ccco3)cc2C1=Cc1cc(Cl)c(O)c(Cl)c1 [GW406108X] , what is its reported Percent Control?
OUTPUT: 100

INPUT: For COc1ccc2c(-c3ccnc(Nc4cccc(OC(F)(F)F)c4)n3)cnn2n1 [GW810372X] , what is its reported Percent Control?
OUTPUT: 87

INPUT: For C/C(Nc1ccc(S(N)(=O)=O)cc1)=C1/C(=O)Nc2ccccc21 [GW335962X] , what is its reported Percent Control?
OUTPUT: 73

INPUT: For CCS(=O)(=O)c1ccc(OC)c(Nc2ncc(-c3cccc(OC)c3)o2)c1 [GW580509X] , what is its reported Percent Control?
OUTPUT: 95

INPUT: For Cl.c1ccc(Cc2nc3ccc(Nc4ncnc5ccccc45)cc3[nH]2)cc1 [GR269666A] , what is its reported Percent Control?
OUTPUT: 100

INPUT: For `CCc1ccc(Oc2nccc(-c3c(-c4ccc(F)cc4)ncn3C3CCNCC3)n2)cc1` , what is its reported Percent Control?
OUTPUT: 100

INPUT: For Nc1ncnc2occ(-c3ccc(NC(=O)Nc4cc(C(F)(F)F)ccc4F)cc3)c12 [GW770249X] , what is its reported Percent Control?
OUTPUT: 0

INPUT: For COc1cc2ncnc(Nc3ccc4c(cnn4Cc4ccccc4)c3)c2cc1OC.Cl [GW282449A] , what is its reported Percent Control?
OUTPUT: 89

INPUT: For COc1cc2ncn(-c3cc(O[C@H](C)c4ccccc4Cl)c(C(N)=O)s3)c2cc1OC [GSK237701A] , what is its reported Percent Control?
OUTPUT: 50

INPUT: For Cl.O=C(Nc1ccc(Oc2ccc3[nH]c(NC(=O)c4ccco4)nc3c2)cc1)Nc1cc(C(F)(F)F)ccc1F [GW683134A] , what is its reported Percent Control?
OUTPUT: 0

INPUT: For Cc1cc(O)cc(C)c1/C=C/c1cncc(C(N)=O)c1 [GW435821X] , what is its reported Percent Control?
OUTPUT: 100

INPUT: For `COc1cc(C)c(N(C)C(=O)CN(C)C)cc1Nc1nc(Nc2cccc(F)c2C(N)=O)c2cc[nH]c2n1` , what is its reported Percent Control?
OUTPUT: 76
